- protocol-details: Displacement of [3H]2-BFI from I2-IBS in human frontal cortex membranes
- Assay type: cell membranes, Membrane
Recorded measurements of Log Ki, one per entry

molecule	Log Ki
N=C(N)NC(=O)CCCCCCCCCCCC(=O)NC(=N)N	-5.06
N=C(N)NC(=O)CCCCCCCCCCCCC(=O)NC(=N)N	-5.91
c1ccc2c(c1)OCC(C1=NCCN1)O2 (stereo not drawn) [IDAZOXAN]	-7.43
N=C(N)NC(=O)CCCCCCCCCCCCCCC(=O)NC(=N)N	-5.7
N=C(N)NC(=O)CCCCCCCCCC(=O)NC(=N)N	-5.2
N=C(N)NC(=O)CCCCCCCCCCC(=O)NC(=N)N	-5.69
N=C(N)NC(=O)CCCCCCCCC(=O)NC(=N)N	-6.11
N=C(N)NCCCCCCCCCCCCNC(=N)N	-7.48
